# Tested on: P-gp
# assayProtocol: Bidirectional transport across Caco-2 cell monolayers
# setupConditions: human, Caco-2, pH 7.4, with GG918 0.5 µM
measuredQuantity: Papp B→A at 120 min, 0.01 µM (×10⁻⁶ cm/s)
Output spec: scalar in ×10⁻⁶ cm/s, unitless text.

Field request: Papp B→A at 120 min, 0.01 µM | item: C[C@H]1O[C@@H](O[C@H]2[C@@H](O)C[C@H](O[C@H]3[C@@H](O)C[C@H](O[C@H]4CC[C@@]5(C)[C@H](CC[C@@H]6[C@@H]5C[C@@H](O)[C@]5(C)[C@@H](C7=CC(=O)OC7)CC[C@]65O)C4)O[C@@H]3C)O[C@@H]2C)C[C@H](O)[C@@H]1O [Digoxin, digoxin]
1.19
